Target: T1, MHC class I allele A*0201 (bound via biotin to streptavidin-coated plate)
T1 construct: iTopia MHC class I monomer on the plate; placeholder peptide and b2M removed, then reconstituted with test peptide and fresh b2M; also called A2; HLA A2
Assay: iTopia peptide binding assay
TEST READOUT: % of positive control peptide binding (%)
Write the value in % as a bare number.

Examples from the recorded data:
- BINDER: "SAQPPLPDQ (also called Peptide No 27) [5T4 9 mer peptide 27 SAQPPLPDQ]"
  READING UNIT: "%"
  RECORDED NUMBER: 13
- BINDER: "TDLPAYVRN (also called Peptide No 44) [5T4 9 mer peptide 44 TDLPAYVRN]"
  READING UNIT: "%"
  RECORDED NUMBER: 3
- BINDER: "DEVRAGAFE (also called Peptide No 66) [5T4 9 mer peptide 66 DEVRAGAFE]"
  READING UNIT: "%"
  RECORDED NUMBER: 9
- BINDER: "PAAGDGRLR (also called Peptide No 5) [5T4 9 mer peptide 5 PAAGDGRLR]"
  READING UNIT: "%"
  RECORDED NUMBER: 5
- BINDER: "VVAALLAGR (also called Peptide No 100) [5T4 9 mer peptide 100 VVAALLAGR]"
  READING UNIT: "%"
  RECORDED NUMBER: 11

Short answer for AALLAGRAL [5T4 9 mer peptide 101 AALLAGRAL] : % of positive control peptide binding was 38
